System: U251 CNS
Experiment: NCI-60 one-dose screen, 48 h
Conditions: 10 µM unless noted
Protocol: Growth inhibition of the U251 human tumor cell line is measured as a screen for anti-cancer activity. Cells are grown in 96 well plates and exposed to the test compound for 48 hours. Compounds are tested at a single concentration, which is 10^-5 M for most compounds. The reported endpoint is percent growth (GI% or GIPRCNT), where numbers from 0 - 100% represent growth inhibition, and numbers from -100% - 0 represent cell death. For example, a value of 40 represents 60% growth inhibition. […]
This is part of a sample that, as a whole, favours compounds with a hit. Of some 83,000 tested, about 20% had one in any assay. The source made the active and inactive calls. Rule for the calls: active = growth percent below 10; inactive = the rest.
Select the correct class. Options are Yes for active, No for inactive and nothing else.

COc1ccc(-c2cc(C(=O)NCc3ccccc3)nn2-c2ccc(S(C)(=O)=O)cc2)cc1OC
No
Cn1cc(-c2nc(N)nnc2-c2c[nH]c3ccc(Br)cc23)c2cc(Br)cnc21
Yes
CCN(CC)c1ccc(/C=N/Nc2nc(-c3ccc(C)cc3)cs2)c(O)c1
No
CN(C)c1ccnc(CNCCSC2(c3ccc(C(F)(F)F)cc3)c3ccccc3CCc3ccccc32)c1
Yes
C=C1CC[C@@H]2[C@]3(C)COC(c4cn[nH]c4-c4ccccc4)O[C@@H]3CC[C@@]2(C)[C@@H]1C/C=C1/C(=O)OCC1O (stereo partly specified)
Yes
Cc1cccc(NC(=O)CN2CCN(c3ncnc4c3cnn4-c3ccccc3)CC2)c1
No
Cn1nc(C(F)(F)F)cc1-c1cc(Cl)c(COc2ccc(Cl)cc2)c(-c2ccc(Cl)c(C(F)(F)F)c2)c1O
Yes
N#Cc1c(-c2ccccc2Cl)cc(-c2c[nH]c3ccccc23)[nH]c1=O
No

# outcome recorded in this test, key = `COc1ccc2c(c1)c(-c1cc3nc(-c4cn(C)c5ncc(Br)cc45)cc(N)n3n1)cn2C` Yes

# outcome recorded in this test, key = `Cc1ccc2c(N)c(C(=O)Nc3ccc(-c4ccccc4)cc3)sc2n1` No

# outcome recorded in this test, key = `O=C(NN1C(=O)/C(=C/C=C/c2ccc([N+](=O)[O-])o2)SC1=S)c1ccccc1O` Yes

# outcome recorded in this test, key = `O=C(COc1ccc2c(c1)CCCC(=O)N2)NCc1ccccc1` No

# outcome recorded in this test, key = CCCS(=O)(=O)N1CCCC(C(=O)Nc2nc3ccc(NC(=O)c4ccc(F)c(OC)c4F)cc3s2)C1 (stereo unspecified) No
